# experimental_target: U2AF65 1,2L 3Gly (human, UniProt P26368 141-342, V249G;V250G;V254G)
# Sequence (P26368 141-342 V249G/V250G/V254G, one chain of several): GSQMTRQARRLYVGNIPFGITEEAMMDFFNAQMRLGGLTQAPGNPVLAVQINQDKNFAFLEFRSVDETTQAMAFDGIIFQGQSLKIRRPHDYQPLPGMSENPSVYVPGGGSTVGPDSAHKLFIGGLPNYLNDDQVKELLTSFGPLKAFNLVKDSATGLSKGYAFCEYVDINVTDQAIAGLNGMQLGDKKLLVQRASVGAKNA
# assay_summary: fluorescence anisotropy; Anisotropy: 100 mM NaCl, 15 mM HEPES pH 6.8, 0.2 mM TCEP, 0.1 U/ul Superase-In, 30 nM RNA, 23 C; smFRET: 50 mM HEPES pH 7.4, 100 mM NaCl, room temperature
property_measured: pKd
pKd here: minus log base 10 of the concentration, concentration in moles per litre.

Request: Which measured pKd value corresponds to CCCUUUUUUUUCC (ssRNA) [AdML Py tract 13mer] ?
Result: 7.33
